# Test system: 953936-095-R-J2-PDC spheroids with HUVEC/MSC, viability;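 note: spheroids exposed to compounds for seven days before read-out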
# Assay Summary: Anticancer human tumor 953936-095-R-J2-PDC patient-derived cervical squamous cell carcinoma cell line growth inhibition [PI3K]; active = viability on the fitted dose curve at most 10% of control; inactive = the rest
# Assay Conditions: second compound 1 µM; first compound 3.16 µM
Outcome (select one): active, inactive

Please review the following examples before continuing.
CC1(C)CCC(CN2CCN(c3ccc(C(=O)NS(=O)(=O)c4ccc(NCC5CCOCC5)c([N+](=O)[O-])c4)c(Oc4cnc5[nH]ccc5c4)c3)CC2)=C(c2ccc(Cl)cc2)C1 + CC(Nc1ccc2c(c1)OCCn1cc(N3C(=O)OCC3C(F)F)nc1-2)C(N)=O
inactive
CC(C)NCC(C(=O)N1CCN(c2ncnc3c2C(C)CC3O)CC1)c1ccc(Cl)cc1 (stereo unspecified) + CC(Nc1ccc2c(c1)OCCn1cc(N3C(=O)OCC3C(F)F)nc1-2)C(N)=O
inactive
CC(Cn1ccc(-c2ccc(C#N)c(Cl)c2)n1)NC(=O)c1cc(C(C)O)[nH]n1 (stereo unspecified) + CC(Nc1ccc2c(c1)OCCn1cc(N3C(=O)OCC3C(F)F)nc1-2)C(N)=O
inactive
CC1(C)CCC(Nc2ncc(C(F)(F)F)c(-c3c[nH]c4c(P(C)(C)=O)c(C#N)ccc34)n2)CN1 (stereo unspecified) + CC(Nc1ccc2c(c1)OCCn1cc(N3C(=O)OCC3C(F)F)nc1-2)C(N)=O
inactive
Cn1nccc1Nc1nccc(-c2ccn(C(CO)c3ccc(Cl)c(F)c3)c(=O)c2)n1 (stereo unspecified) + CC(Nc1ncnc2nc[nH]c12)c1cc2cccc(Cl)c2c(=O)n1-c1ccccc1
inactive

Next molecule, please.
Fill in: this test's call for CC1(C)CCC(Nc2ncc(C(F)(F)F)c(-c3c[nH]c4c(P(C)(C)=O)c(C#N)ccc34)n2)CN1 (stereo unspecified) + Cc1nc(NC(=O)N2CCCC2C(N)=O)sc1-c1ccnc(C(C)(C)C(F)(F)F)c1 is ___
inactive
